Kindly state self-cleavage for each of the entries shown.
B1: HDV Ribozyme (parent)
chain: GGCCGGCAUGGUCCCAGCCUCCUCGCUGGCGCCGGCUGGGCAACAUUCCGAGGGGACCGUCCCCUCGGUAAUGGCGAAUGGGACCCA

Variants of: B1
Test Summary: self-cleavage, relative activity (ratio to wild type); higher = more cleavage; co-transcriptional
Could you keep your reply to the number by itself?

The measured self-cleavage associated with U9A G67U reads 0.849

Form field self-cleavage, entry C3A G31U : 0.0339

self-cleavage recorded for this variant, U60A A78C , is 0

The variant listed as A8G C61U shows self-cleavage equal to 0.982

The recorded self-cleavage for entry U20G A87G equals 0.282

Notebook: G11A G39C , self-cleavage read as 0

Item: G28C C86A | self-cleavage: 0.0583

Reported self-cleavage of C58A U60C : 1.17

Entry G28C G68U , self-cleavage reported as 0.0426

// self-cleavage value for C22U U37G : 0.101

Summary for this variant, G40U C85U : self-cleavage is 0.911

The reported self-cleavage of the variant A56G A87C was 0.993

Notebook: A8U C21G , self-cleavage read as 0.119

Entry C19A G40C — recorded self-cleavage = 0.0587

The variant listed as C14U A71G shows self-cleavage equal to 0.883

Looking up G53C C63G , I see its self-cleavage listed as 0.973

# variant C32A G38C ; its self-cleavage = 0.0817

Notebook: G55C G59U , self-cleavage read as 0.87

Measured self-cleavage of U47C C63G : 0.178

Value of self-cleavage reported for the variant C13G U20A is 0

For reference, reported self-cleavage for G28A C36G stands at 0.0519

Entry A56U U69A ; self-cleavage = 1.04

So, G59U C62G ? Its self-cleavage was 0.748

// G82U A87G : self-cleavage value = 0.387

Entry C22A C61G — recorded self-cleavage = 0.323

Lab note: measured self-cleavage of G11A A43C was 0.106

// recorded self-cleavage for A45C A78U : 0.229

So for G31A U46G , the logged self-cleavage turned out to be 0.0852

So for C21U G38C , the logged self-cleavage turned out to be 0.0923

For reference, reported self-cleavage for U23C U46G stands at 0.739

Measured self-cleavage of C15A C22U : 0.231

The recorded self-cleavage for entry C4U U20G equals 0

Value of measured self-cleavage for the entry C30A G54A : 0.535

Given item U46G A78C , the value recorded as its self-cleavage is 0.277

Entry under test: U65C G67C . Its self-cleavage was 0.984

self-cleavage measured on G11A G68U = 0.249

Recorded result, G52C G55U , self-cleavage: 0.966

self-cleavage reported for this variant U12C A78C : 0.162

The variant identified as C66A A83C registered its self-cleavage at 0.527

self-cleavage recorded for this variant, C3U C84G , is 0.636

The variant identified as U23C A77C registered its self-cleavage at 0.256

self-cleavage in this record for C19A G68U : 0.178

Reported self-cleavage of C4A U60C : 0.344

Entry under test: C64U U65A . Its self-cleavage was 0.984

Please fill in: self-cleavage reported for C44G U60A = 0.798

The value of self-cleavage measured for the variant A42G A45G turned out to be 0.383

These data points were gathered from the RNAGym collection of RNA variant scans (doi:10.7554/elife.80360).
